B1: glmS ribozyme (parent)
chain: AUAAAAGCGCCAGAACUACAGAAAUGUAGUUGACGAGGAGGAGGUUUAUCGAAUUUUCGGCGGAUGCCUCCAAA

variants of: B1; assay: self-cleavage kobs at 640 uM GlcN6P; higher = faster cleavage; RNA array; conditions: with glucosamine-6-phosphate
Variants at the floor of the assay were thinned out.
Please mark 1 (yes) if the recorded self-cleavage kobs at 640 uM GlcN6P is equal to or greater than 0.0001 s⁻¹, and 0 (no) if it falls below.

Illustrative cases are given below, each with its answer.
[[record]]
mut = "A12G U31G U55A C67U"
classassignment = "0 (no)"

[[record]]
mut = "G13U G29A A52C"
classassignment = "0 (no)"

[[record]]
mut = "U47G G51U"
classassignment = "0 (no)"

[[record]]
mut = "G9A U31A"
classassignment = "0 (no)"

[[record]]
mut = "A12U A39C A52G"
classassignment = "0 (no)"

[[record]]
mut = "C11U A12U C71A"
classassignment = "1 (yes)"

[[record]]
mut = "A48G C70G"
classassignment = "0 (no)"

[[record]]
mut = "G29A G37A"
classassignment = "1 (yes)"


[ask] Is the recorded value of self-cleavage kobs at 640 uM GlcN6P equal to or greater than 0.0001 s⁻¹ for this variant? C16U U46C U55A C70U
[reply] 1 (yes)

[ask] Hello, I need to know if A14C U56A has measured self-cleavage kobs at 640 uM GlcN6P not below 0.0001 s⁻¹. Thanks!
[reply] 1 (yes)
